Source listed as the supplement of paper PMC10567573.

B1: C1orf137 (parent)
chain: LPQETNLTLKVCKPQAPQKLDPTL

# Variants of: B1
# Experimental Protocol: protein stability index of a GFP-peptide fusion (GPS, HEK-293T) (PSI 1-6); higher = more stable;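 also: lentivirally expressed fusions sorted by FACS into six bins by GFP to DsRed ratio, PSI derived from sequencing read proportions per bin multiplied by bin number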
# Condition Notes: c terminus: a fixed tail appended
Measured Endpoint: protein stability index

For record T5E the listed protein stability index is 4.2

For record L7V the listed protein stability index is 4.21

For record L9H the listed protein stability index is 3.78

For record P2Q the listed protein stability index is 3.76

For record D21W the listed protein stability index is 2.36

For record L24I the listed protein stability index is 4.1

For record N6R the listed protein stability index is 3.31

For record L24A the listed protein stability index is 4.34

For record T8E the listed protein stability index is 4.14

For record T8W the listed protein stability index is 2.64

For record P2C the listed protein stability index is 3.27

For record Q3T the listed protein stability index is 4.17

For record L20M the listed protein stability index is 4.13

For record D21G the listed protein stability index is 3.3

For record P17K the listed protein stability index is 4.13

For record L20V the listed protein stability index is 4.03

For record P17V the listed protein stability index is 3.95

For record P22K the listed protein stability index is 4

For record L7K the listed protein stability index is 4.61

For record A16F the listed protein stability index is 2.92

For record V11F the listed protein stability index is 3.22

For record L1W the listed protein stability index is 3.98

For record L1Q the listed protein stability index is 4.38

For record T23I the listed protein stability index is 3.37

For record V11H the listed protein stability index is 4.08

For record L20W the listed protein stability index is 3.51

For record K19W the listed protein stability index is 2.36

For record Q3W the listed protein stability index is 2.54

For record Q18H the listed protein stability index is 3.69

For record Q15E the listed protein stability index is 4.41

For record C12G the listed protein stability index is 4.81

For record T8P the listed protein stability index is 4.53

For record Q3R the listed protein stability index is 3.29

For record K19C the listed protein stability index is 2.92

For record P2M the listed protein stability index is 2.23

For record L1T the listed protein stability index is 4.44

For record Q15F the listed protein stability index is 2.69

For record T5L the listed protein stability index is 2.69

For record D21Y the listed protein stability index is 2.73
